What IC50 was measured for each of the following?
system: 475296-252-R-J1-PDC spheroid viability; assay: Anticancer human tumor 475296-252-R-J1-PDC patient-derived rectal carcinoma cell line growth inhibition [PI3K]; conditions: compound alone; run of 06/12/2023; spheroids with HUVEC and MSC

Cc1nc(NC(=O)N2CCCC2C(N)=O)sc1-c1ccnc(C(C)(C)C(F)(F)F)c1 (configuration not stated) = > 10 µM

Then this molecule:
Fill blank: measured IC50 of the molecule CC(Nc1ccc2c(c1)OCCn1cc(N3C(=O)OCC3C(F)F)nc1-2)C(N)=O (configuration not stated) is ____. > 1 µM

----------
tested on: 475296-252-R-J1-PDC spheroid viability; assay: Anticancer human tumor 475296-252-R-J1-PDC cell line growth inhibition [PI3K]; settings: second compound 0.00316 µM; first compound 0.1 µM; stronger effect = lower value; spheroids with HUVEC and MSC;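 further: spheroids exposed to agents for seven days before readout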
Labelling: viability, T/C reported below 80% becomes rule met; at or above becomes rule not met.

Observe how each entry below is paired with its result.
Cn1ncc(Cl)c1-c1cc(C(=O)NC(CN)Cc2cccc(F)c2)sc1Cl (stereo not given) + COc1c(OCCCN2CCOCC2)ccc2c3n(c(=NC(=O)c4cnc(N)nc4)nc12)CCN3 = rule met
CC1(C)CCC(CN2CCN(c3ccc(C(=O)NS(=O)(=O)c4ccc(NCC5CCOCC5)c([N+](=O)[O-])c4)c(Oc4cnc5[nH]ccc5c4)c3)CC2)=C(c2ccc(Cl)cc2)C1 + COc1c(OCCCN2CCOCC2)ccc2c3n(c(=NC(=O)c4cnc(N)nc4)nc12)CCN3 = rule not met

Does the reported viability, T/C of CC(C)NCC(C(=O)N1CCN(c2ncnc3c2C(C)CC3O)CC1)c1ccc(Cl)cc1 (stereo not given) + CC(Nc1ccc2c(c1)OCCn1cc(N3C(=O)OCC3C(F)F)nc1-2)C(N)=O stay below 80%? rule not met

Determine if CCCS(=O)(=O)Nc1ccc(F)c(C(=O)c2c[nH]c3ncc(-c4ccc(Cl)cc4)cc23)c1F + COc1c(OCCCN2CCOCC2)ccc2c3n(c(=NC(=O)c4cnc(N)nc4)nc12)CCN3 shows viability, T/C strictly lower than 80%. rule not met

----------
Could you please report measured pIC50 for the items listed next?
system: 475296-252-R-J1-PDC spheroid viability; assay: Anticancer human tumor 475296-252-R-J1-PDC cell line growth inhibition [PI3K]; conditions: curve of first compound; second compound 1 µM; spheroids with HUVEC and MSC;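 further: spheroids exposed to agents for seven days before readout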
pIC50: −log10 of the molar value.

Parameter requested: pIC50. Apply to each item below.
1. CC(Cn1ccc(-c2ccc(C#N)c(Cl)c2)n1)NC(=O)c1cc(C(C)O)[nH]n1 (stereo unspecified) + COc1c(OCCCN2CCOCC2)ccc2c3n(c(=NC(=O)c4cnc(N)nc4)nc12)CCN3
2. C#Cc1c(F)ccc2cc(O)cc(-c3ncc4c(N5CC6CCC(C5)N6)nc(OCC56CCCN5CC(F)C6)nc4c3F)c12 (stereo unspecified) + COc1c(OCCCN2CCOCC2)ccc2c3n(c(=NC(=O)c4cnc(N)nc4)nc12)CCN3

< 5.00
> 7.50

----------
tested on: 475296-252-R-J1-PDC spheroid viability; assay: Anticancer human tumor 475296-252-R-J1-PDC cell line growth inhibition [PI3K]; details: second compound 0.1 µM; first compound 0.3 µM; stronger effect = lower value; spheroids with HUVEC and MSC;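 further: spheroids exposed to agents for seven days before readout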
reported_endpoint: viability, T/C (%)
One number for each entry, in %.

Known results for compounds:
Cn1cnc2c(F)c(Nc3ccc(Br)cc3Cl)c(C(=O)NOCCO)cc21 + COc1c(OCCCN2CCOCC2)ccc2c3n(c(=NC(=O)c4cnc(N)nc4)nc12)CCN3 = 25.6
Cn1cnc2c(F)c(Nc3ccc(Br)cc3Cl)c(C(=O)NOCCO)cc21 + CC(Nc1ncnc2nc[nH]c12)c1cc2cccc(Cl)c2c(=O)n1-c1ccccc1 = 73.5
Cn1cnc2c(F)c(Nc3ccc(Br)cc3Cl)c(C(=O)NOCCO)cc21 + Cc1nc(NC(=O)N2CCCC2C(N)=O)sc1-c1ccnc(C(C)(C)C(F)(F)F)c1 = 73.2

Now for the compound whose viability, T/C we want.
Item under review: Cn1cnc2c(F)c(Nc3ccc(Br)cc3Cl)c(C(=O)NOCCO)cc21 + CC(Nc1ccc2c(c1)OCCn1cc(N3C(=O)OCC3C(F)F)nc1-2)C(N)=O . Reported viability, T/C? 65

----------
So I've got a bunch of molecules here, and I need their viability, T/C values.
system: 475296-252-R-J1-PDC spheroid viability; assay: Anticancer human tumor 475296-252-R-J1-PDC cell line growth inhibition [PI3K]; conditions: second compound 0.00316 µM; first compound 0.1 µM; stronger effect = lower value; spheroids with HUVEC and MSC;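 further: spheroids exposed to agents for seven days before readout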
Give bare numbers, in %.

Some molecules with known viability, T/C results, for comparison:
CC(Cn1ccc(-c2ccc(C#N)c(Cl)c2)n1)NC(=O)c1cc(C(C)O)[nH]n1 (stereo not drawn) + COc1c(OCCCN2CCOCC2)ccc2c3n(c(=NC(=O)c4cnc(N)nc4)nc12)CCN3 = 99.3
C#Cc1c(F)ccc2cc(O)cc(-c3ncc4c(N5CC6CCC(C5)N6)nc(OCC56CCCN5CC(F)C6)nc4c3F)c12 (stereo not drawn) + COc1c(OCCCN2CCOCC2)ccc2c3n(c(=NC(=O)c4cnc(N)nc4)nc12)CCN3 = 87.5

Please give the measured viability, T/C for this molecule: Cn1ncc(Cl)c1-c1cc(C(=O)NC(CN)Cc2cccc(F)c2)sc1Cl (stereo not drawn) + CC(Nc1ccc2c(c1)OCCn1cc(N3C(=O)OCC3C(F)F)nc1-2)C(N)=O 68.7

----------
test system: 475296-252-R-J1-PDC spheroid viability; experiment: Anticancer human tumor 475296-252-R-J1-PDC cell line growth inhibition [PI3K]; settings: second compound 0.00316 µM; first compound 0.1 µM; stronger effect = lower value; spheroids with HUVEC and MSC;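 further: spheroids exposed to agents for seven days before readout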
Binarize viability, T/C at 90%; below is true, at or above is false.

CCN1CCN(Cc2ccc(Nc3ncc(F)c(-c4cc(F)c5nc(C)n(C(C)C)c5c4)n3)nc2)CC1 + COc1c(OCCCN2CCOCC2)ccc2c3n(c(=NC(=O)c4cnc(N)nc4)nc12)CCN3 = false
CC1(C)CCC(Nc2ncc(C(F)(F)F)c(-c3c[nH]c4c(P(C)(C)=O)c(C#N)ccc34)n2)CN1 (stereo unspecified) + CC(Nc1ccc2c(c1)OCCn1cc(N3C(=O)OCC3C(F)F)nc1-2)C(N)=O = true
CC1(C)CCC(CN2CCN(c3ccc(C(=O)NS(=O)(=O)c4ccc(NCC5CCOCC5)c([N+](=O)[O-])c4)c(Oc4cnc5[nH]ccc5c4)c3)CC2)=C(c2ccc(Cl)cc2)C1 + CC(Nc1ccc2c(c1)OCCn1cc(N3C(=O)OCC3C(F)F)nc1-2)C(N)=O = false
CC(=O)c1c(C)c2cnc(Nc3ccc(N4CCNCC4)cn3)nc2n(C2CCCC2)c1=O + CC(Nc1ccc2c(c1)OCCn1cc(N3C(=O)OCC3C(F)F)nc1-2)C(N)=O = false
CCCS(=O)(=O)Nc1ccc(F)c(C(=O)c2c[nH]c3ncc(-c4ccc(Cl)cc4)cc23)c1F + CC(Nc1ccc2c(c1)OCCn1cc(N3C(=O)OCC3C(F)F)nc1-2)C(N)=O = true
C=CC(=O)N1CCN(c2nc(=O)n(-c3c(C)ccnc3C(C)C)c3nc(-c4c(O)cccc4F)c(F)cc23)C(C)C1 (stereo unspecified) + COc1c(OCCCN2CCOCC2)ccc2c3n(c(=NC(=O)c4cnc(N)nc4)nc12)CCN3 = false
CC1(C)CCC(Nc2ncc(C(F)(F)F)c(-c3c[nH]c4c(P(C)(C)=O)c(C#N)ccc34)n2)CN1 (stereo unspecified) + COc1c(OCCCN2CCOCC2)ccc2c3n(c(=NC(=O)c4cnc(N)nc4)nc12)CCN3 = false
CC(=O)c1c(C)c2cnc(Nc3ccc(N4CCNCC4)cn3)nc2n(C2CCCC2)c1=O + COc1c(OCCCN2CCOCC2)ccc2c3n(c(=NC(=O)c4cnc(N)nc4)nc12)CCN3 = false

hey, is viability, T/C for Cn1nccc1Nc1nccc(-c2ccn(C(CO)c3ccc(Cl)c(F)c3)c(=O)c2)n1 (stereo unspecified) + COc1c(OCCCN2CCOCC2)ccc2c3n(c(=NC(=O)c4cnc(N)nc4)nc12)CCN3 lower than 90% or not? false

is_below(viability, T/C, 90%) for CC(C)n1nc(-c2ccc3oc(N)nc3c2)c2c(N)ncnc21 + COc1c(OCCCN2CCOCC2)ccc2c3n(c(=NC(=O)c4cnc(N)nc4)nc12)CCN3 ? true

Identify whether the molecule CC(C)NCC(C(=O)N1CCN(c2ncnc3c2C(C)CC3O)CC1)c1ccc(Cl)cc1 (stereo unspecified) + COc1c(OCCCN2CCOCC2)ccc2c3n(c(=NC(=O)c4cnc(N)nc4)nc12)CCN3 records viability, T/C below 90%. false

----------
Assign pIC50 to each entry below.
system: 475296-252-R-J1-PDC spheroid viability; assay: Anticancer human tumor 475296-252-R-J1-PDC cell line growth inhibition [PI3K]; conditions: curve of first compound; second compound 0.0316 µM; spheroids with HUVEC and MSC;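 further: spheroids exposed to agents for seven days before readout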
pIC50: −log10 of the molar value.

Cn1nccc1Nc1nccc(-c2ccn(C(CO)c3ccc(Cl)c(F)c3)c(=O)c2)n1 (stereo not drawn) + Cc1nc(NC(=O)N2CCCC2C(N)=O)sc1-c1ccnc(C(C)(C)C(F)(F)F)c1 = < 5.00
CC(C)n1nc(-c2ccc3oc(N)nc3c2)c2c(N)ncnc21 + COc1c(OCCCN2CCOCC2)ccc2c3n(c(=NC(=O)c4cnc(N)nc4)nc12)CCN3 = < 7.00

Any idea what pIC50 was measured for CC(C)NCC(C(=O)N1CCN(c2ncnc3c2C(C)CC3O)CC1)c1ccc(Cl)cc1 (stereo not drawn) + CC(Nc1ncnc2nc[nH]c12)c1cc2cccc(Cl)c2c(=O)n1-c1ccccc1 ? < 5.00
